Reference for the values: patent US10023602B2

# Test system: methicillin resistant S. aureus Mu50 strain (S. aureus ATCC700699) biofilm
# assay protocol: Biofilm susceptibility to vancomycin, combination treatment regimen (mature biofilm treated with compound plus vancomycin)
# Type: cell-based
# details: compound 100 μM together with VAN 20 μg/ml on mature biofilm; compared to the untreated (negative) control
Mark No for Combin. (100 μM): percentage Colony Forming Units (CFU's) per biofilm values under 20 percentage, and Yes for everything at or above.

Query: Confirm if Combin. (100 μM): percentage Colony Forming Units (CFU's) per biofilm reported for the compound O=C(NC[C@]1(O)CO[C@H](CNC(=O)c2ccccn2)[C@H]1O)c1ccccc1 is 20 percentage or above.
Result: Yes

Query: Quick check: does Cc1ccccc1C(=O)NC[C@H]1OC[C@@](O)(CNC(=O)c2ccccc2)[C@@H]1O have Combin. (100 μM): percentage Colony Forming Units (CFU's) per biofilm greater than or equal to 20 percentage?
Result: No

Query: State whether the measured Combin. (100 μM): percentage Colony Forming Units (CFU's) per biofilm reaches 20 percentage, counting equality as reaching it, for O=C(NC[C@H]1OC[C@@](O)(CNC(=O)c2ccccc2)[C@@H]1O)c1ccc(-c2ccccc2)cc1
Result: No

Query: Hello, I need to know if O=C(NC[C@]1(O)CO[C@H](CNC(=O)c2ccccc2F)[C@H]1O)c1ccccc1 has measured Combin. (100 μM): percentage Colony Forming Units (CFU's) per biofilm not below 20 percentage. Thanks!
Result: No

Query: Reported Combin. (100 μM): percentage Colony Forming Units (CFU's) per biofilm reaches at least 20 percentage for O=C(NC[C@H]1OC[C@@](O)(CNC(=O)c2ccccc2)[C@@H]1O)c1ccc(F)c(F)c1 ?
Result: Yes

Query: Hi team, for O=C(NC[C@H]1OC[C@@](O)(CNC(=O)c2ccnnc2)[C@@H]1O)c1ccnnc1 , is the recorded Combin. (100 μM): percentage Colony Forming Units (CFU's) per biofilm at or above 20 percentage?
Result: No

Query: Can O=C(NC[C@]1(O)CO[C@H](CNC(=O)c2c(Cl)cncc2Cl)[C@H]1O)c1ccccc1 be said to have Combin. (100 μM): percentage Colony Forming Units (CFU's) per biofilm at or above 20 percentage?
Result: No

Query: Item CCS(=O)(=O)NC[C@H]1OC[C@@](O)(CNC(=O)c2ccccc2)[C@@H]1O with Combin. (100 μM): percentage Colony Forming Units (CFU's) per biofilm of 20 percentage or above?
Result: Yes

====

# Tested on: methicillin resistant S. aureus Mu50 strain (S. aureus ATCC700699) biofilm
# assay protocol: Biofilm susceptibility to vancomycin, pre-treatment regimen (biofilm formed in presence of compound, then vancomycin)
# Type: cell-based
# details: concentration needed to get 50% killing compared to antibiotic alone (VAN 20 μg/ml) and complete killing; read-out: Pretreat. (EC50)
measurement label: pEC50
# pEC50: negative log10 of molar concentration; output just the value

Query: Let me know recorded pEC50 for O=C(NC[C@H]1OC[C@@](O)(CNC(=O)c2ccccc2Cl)[C@@H]1O)c1ccc(-c2ccccc2)cc1 [compound 250] , thanks.
Result: 4.64

Query: Read off the recorded pEC50 for O=C(NC[C@]1(O)CO[C@H](CNS(=O)(=O)c2ccc(Cl)cc2)[C@H]1O)c1ccccc1 [compound 217]
Result: 4.63

Query: Look up and report measured pEC50 for this entry: O=C(NC[C@H]1OC[C@@](O)(CN2C(=O)c3ccccc3C2=O)[C@@H]1O)c1ccccc1Cl [compound 231]
Result: 5.58

Query: In one line, give reported pEC50 of the entry O=C(NC[C@H]1OC(O)[C@@](O)(CNC(=O)c2ccccc2)[C@@H]1O)c1ccccc1 (stereo partly shown) [compound 21] .
Result: 4.13

Query: // Input: O=C(NC[C@]1(O)CO[C@H](CN2C(=O)c3ccccc3C2=O)[C@H]1O)c1ccccc1 [compound 173] . Output its pEC50 only.
Result: 5.30

Query: Give pEC50 for the following molecule: O=C(NC[C@H]1OC[C@@](O)(CNC(=O)c2ccccc2)[C@@H]1O)c1ccc(-c2ccccc2)cc1 [compound 159]
Result: 5.20

Query: Entry O=C(NC[C@H]1OC[C@@](O)(CNC(=O)c2ccccc2)[C@@H]1O)c1ccc(Cl)cc1 [compound 153] needs its pEC50 filled in; supply it.
Result: 4.74

====

# Test system: methicillin resistant S. aureus Mu50 strain (S. aureus ATCC700699) biofilm
# assay protocol: Biofilm susceptibility to vancomycin, combination treatment regimen (mature biofilm treated with compound plus vancomycin)
# Assay type: cell-based
# details: compound 100 μM together with VAN 20 μg/ml on mature biofilm; compared to the untreated (negative) control
Give Combin. (100 μM): percentage Colony Forming Units (CFU's) per biofilm for every item shown.
Output spec: scalar in percentage, unitless text.

Query: Consider the compound COc1ccccc1C(=O)NC[C@H]1OC[C@@](O)(CNC(=O)c2ccccc2)[C@@H]1O . State its measured Combin. (100 μM): percentage Colony Forming Units (CFU's) per biofilm.
Result: 31.40

Query: Give the value of Combin. (100 μM): percentage Colony Forming Units (CFU's) per biofilm reported for the following: Cn1c(C(=O)NC[C@H]2OC[C@@](O)(CNC(=O)c3ccccc3)[C@@H]2O)cc2ccccc21
Result: 42.75

Query: State, in one line, measured Combin. (100 μM): percentage Colony Forming Units (CFU's) per biofilm of O=C(NC[C@H]1OC[C@@](O)(CNC(=O)c2ccccc2Cl)[C@@H]1O)c1ccc(-c2ccccc2)cc1
Result: 29.48

Query: Input O=C(NC[C@@H]1OC[C@@](O)(CNC(=O)c2ccccc2)[C@@H]1O)c1ccccc1 , output reported Combin. (100 μM): percentage Colony Forming Units (CFU's) per biofilm.
Result: 55.70

Query: Find the measured Combin. (100 μM): percentage Colony Forming Units (CFU's) per biofilm of O=C(NC[C@H]1OC[C@@](O)(CN2C(=O)c3ccccc3C2=O)[C@@H]1O)c1ccccc1Cl and report it.
Result: 28.85

Query: Report measured Combin. (100 μM): percentage Colony Forming Units (CFU's) per biofilm; entry is O=C(NC[C@H]1OC(O)[C@@](O)(CNC(=O)c2ccc(O)cc2)[C@@H]1O)c1ccc(O)cc1 (some centres unmarked)
Result: 27.23

Query: Report Combin. (100 μM): percentage Colony Forming Units (CFU's) per biofilm, nothing else, for this compound: Cn1nccc1C(=O)NC[C@H]1OC[C@@](O)(CNC(=O)c2ccccc2)[C@@H]1O
Result: 21.74

Query: Supply recorded Combin. (100 μM): percentage Colony Forming Units (CFU's) per biofilm for O=C(NC[C@H]1OC[C@@](O)(CNC(=O)c2ccccc2)[C@@H]1O)c1ccnnc1 here.
Result: 13.70

Query: Respond only with Combin. (100 μM): percentage Colony Forming Units (CFU's) per biofilm recorded for O=C(NC[C@]1(O)CO[C@H](CNS(=O)(=O)c2ccccc2Cl)[C@H]1O)c1ccccc1
Result: 26.88

Query: Report measured Combin. (100 μM): percentage Colony Forming Units (CFU's) per biofilm; entry is O=C(Cc1ccccc1)NC[C@]1(O)CO[C@H](CNC(=O)c2ccccc2Cl)[C@H]1O
Result: 71.25

Query: Specify reported Combin. (100 μM): percentage Colony Forming Units (CFU's) per biofilm for the compound shown: COc1cccc(C(=O)NC[C@H]2OC[C@@](O)(CNC(=O)c3ccccc3)[C@@H]2O)c1
Result: 27.21

====

Hi there, I'd appreciate the recorded EC50 for every entry that follows.
# Tested on: methicillin resistant S. aureus Mu50 strain (S. aureus ATCC700699) biofilm
# assay protocol: Biofilm susceptibility to vancomycin, pre-treatment regimen (biofilm formed in presence of compound, then vancomycin)
# Format: cell-based
# details: concentration needed to get 50% killing compared to antibiotic alone (VAN 20 μg/ml) and complete killing; read-out: Pretreat. (EC50)
// note: answer is a bare numeric in µM

Query: Hello, please tell me recorded EC50 for this one: O=C(NC[C@H]1OC[C@@](O)(CNC(=O)c2ccccc2)[C@@H]1O)c1cccc(C(F)(F)F)c1 [compound 166]
Result: 9.13

Query: Report measured EC50; entry is O=C(NC[C@]1(O)CO[C@H](CNC(=O)c2ccccc2Cl)[C@H]1O)c1ccccc1 [compound 171]
Result: 0.389

Query: Indicate its recorded EC50; the compound in question is O=C(NC[C@]1(O)CO[C@H](CN2C(=O)c3ccccc3C2=O)[C@H]1O)c1ccc(-c2ccccc2)cc1 [compound 254]
Result: 4.79

Query: Give recorded EC50. O=C(NC[C@H]1OC[C@@](O)(CNC(=O)c2ccccc2Cl)[C@@H]1O)c1ccnnc1 [compound 251]
Result: 3.38

Query: Return the recorded EC50 value; entry: O=C(NC[C@H]1OC(O)[C@@](O)(CNC(=O)c2cc(O)cc(O)c2)[C@@H]1O)c1cc(O)cc(O)c1 (stereo partly drawn) [compound 18]
Result: 116

Query: Return EC50 for the following compound: Cc1ccccc1C(=O)NC[C@]1(O)CO[C@H](CNC(=O)c2ccccc2Cl)[C@H]1O [compound 244]
Result: 56.4

Query: For the compound O=C(NC[C@H]1OC(O)[C@@](O)(CNC(=O)c2ccc(O)c(O)c2)[C@@H]1O)c1ccc(O)c(O)c1 (stereo partly drawn) [compound 17] , report EC50.
Result: 182

Query: Fill in EC50 for record O=C(NC[C@]1(O)CO[C@H](CNC(=O)c2ccccc2I)[C@H]1O)c1ccccc1 [compound 179]
Result: 1.85

Query: Specify EC50 for CN(C[C@H]1OC[C@@](O)(CNC(=O)c2ccccc2)[C@@H]1O)C(=O)c1ccccc1 [compound 261] and stop.
Result: 8.5

Query: Assign EC50 to the following record: O=C(NC[C@]1(O)CO[C@H](CNC(=O)c2ccc(Cl)cc2Cl)[C@H]1O)c1ccccc1 [compound 193]
Result: 11.4

Query: For Cc1ccccc1C(=O)NC[C@H]1OC[C@@](O)(CNC(=O)c2ccccc2)[C@@H]1O [compound 169] , write its EC50.
Result: 13.7
